Target: T1, HCV bt-134-154 (Peptide 1, HCVc 134-154) (Hepatitis C virus (numbering per HCV-1), biotin (carboxy-terminal per; N-terminal per))
T1 peptide: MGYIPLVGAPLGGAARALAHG
Test: EIA, captured mAb + biotin peptide
Catalogue of binders with associated Reactivity (OD 492 nm)
Record the value in OD units, omitting the unit from your answer.

BINDER	REPORTED
HCV 208B-515 (antibody, V domains shown) VH: QVQLQQPGAELVKPGASLKLSCRASGYTFTSYWIHWVKQRPGQGLEWIGEIDPSDSYTNYNQKFKGKATLTVDKSSRAAYMQLSSLTSEDSAVYYCARHYYGVFDSWGQGTKLTVSS VL: QIVFTQYPAIMSASLGERVTMTCTASSSVTSSYLHWFQQKPGSSPKLWIYSTSNPGSGVPARFSGRGSGTSYSLSISSMEAEDAATYYCLQFHRSPWTFGGGTKLEIRR	0.51

Look at this binder and give its reported Reactivity (OD 492 nm). HCV 208A-877 (antibody, V domains shown) VH: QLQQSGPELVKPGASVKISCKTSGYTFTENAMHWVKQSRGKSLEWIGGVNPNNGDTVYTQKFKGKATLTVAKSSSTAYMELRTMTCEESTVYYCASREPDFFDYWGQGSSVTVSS VL: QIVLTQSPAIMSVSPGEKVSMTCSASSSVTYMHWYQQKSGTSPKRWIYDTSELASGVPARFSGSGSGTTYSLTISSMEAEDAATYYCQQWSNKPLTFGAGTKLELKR
0.06

Quick one: Reactivity (OD 492 nm) of HCV 208B-822 (antibody, V domains shown) VH: QVQLKQSGPGLVQPSQSLSITCTVSGFSLITYGVHWVRQSPGKGLEWLGVIWGGGSTGYNAAFVSRLNITKDNSKSQVFFKMNSLQPDDTAIYYCARNGGATVFDYWGQGTTLTVSS VL: DIVMTQSPATLSVTPGDRVSLSCRASQTISDYLHWYQQKSHESPRLLIKYASQSISGIPSRFSGSGSGSHFTLSINSVEPEDVGVYYCQNGHSFPWTFGGGTKLEIKR ?
0.08

Data origin: patent US20170052184A1
